# test.method.notes: Total Cmax in db/db mouse at 30 mg/kg, po qd after 1 to 24 hrs
# Assay type: ADME, organism-based
# Set-up: dose 30 mg/kg, route oral
# condition.summary: in vivo
value.kind: Cmax (nM)
Your answer should be a plain number; it is taken to be in nM.

# example entries with known answers
Supply measured Cmax of O=C1CCCN1CC(O)Cn1c2ccc(F)cc2c2cc(F)ccc21 (stereo not drawn) in your reply.
415

Supply measured Cmax of CN1CCCN(CC(O)Cn2c3ccc(F)cc3c3cc(F)ccc32)C1=O (stereo not drawn) in your reply.
63

Supply measured Cmax of O=C1C2CCC(C2)N1CC(O)Cn1c2ccc(F)cc2c2cc(F)ccc21 (stereo not drawn) in your reply.
551

Now consider a different compound.
Supply measured Cmax of O=C1NCCN1CC(O)Cn1c2ccc(F)cc2c2cc(F)ccc21 (stereo not drawn) in your reply.
1090
